target: Sphingosine 1-phosphate receptor 2 (Homo sapiens); test: human S1P2 receptor antagonists, primary screen, cell-based (AID 736); details: cell-based S1P2 antagonist assay, at 5 µM, stronger effect = higher value;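 also: CRE beta-lactamase reporter cells expressing human S1P2 stimulated with S1P; 0% = agonist at EC80 alone and 100% = agonist plus reference antagonist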
Among all 97,000 compounds or so, about 210 (0.22%) were called active. The sample holds actives, similar compounds and a random draw of the others, so the mix is not that of the screen.
Kindly supply the reported inhibition values for the records listed here.
# output: bare number, implied unit %

**Q:** May I ask what inhibition has been recorded for O=C(NCCN1CCN(Cc2ccccc2)CC1)c1cc2c(=O)[nH]c3ccccc3c2s1 ?
**A:** -27.2

**Q:** May I ask what inhibition has been recorded for Cc1cc(=O)[nH]c(SCc2cccc(F)c2)n1 ?
**A:** -28.1

**Q:** May I ask what inhibition has been recorded for O=C1Cc2ccccc2Sc2ccc(Cl)cc21 ?
**A:** 1.39

**Q:** May I ask what inhibition has been recorded for O=c1c2ccccc2c(-c2ccc(F)cc2)nn1-c1ccc(C(F)(F)F)cc1 ?
**A:** 8.3

**Q:** May I ask what inhibition has been recorded for CCOc1ccc(-n2c(N)c(C(=O)NCC3CCCO3)sc2=S)cc1 (configuration not stated) ?
**A:** 1.44

**Q:** May I ask what inhibition has been recorded for Cc1[nH]n(-c2ccc(Cl)cc2)c(=O)c1/C=N/n1c(C)nc2ccccc2c1=O ?
**A:** 2.28

**Q:** May I ask what inhibition has been recorded for CCc1nnc(NC(=O)CSc2nc3ccccc3c(=O)n2CCCOC)s1 ?
**A:** 2.95

**Q:** May I ask what inhibition has been recorded for Cc1nnc(SCc2nc3ccccc3nc2C)s1 ?
**A:** -20.9

**Q:** May I ask what inhibition has been recorded for O=C(Nc1ccccc1)c1nnsc1S(=O)(=O)c1ccc(Cl)cc1 ?
**A:** 61.4

**Q:** May I ask what inhibition has been recorded for COc1cccc(N2CCN(C3CC(=O)N(c4ccc(Cl)cc4)C3=O)CC2)c1 (configuration not stated) ?
**A:** -1.94

**Q:** May I ask what inhibition has been recorded for ONC(=Nc1ccccc1)c1ccccc1Cl ?
**A:** -2.09

**Q:** May I ask what inhibition has been recorded for CCOC(=O)C(C)n1cnc2sc(C)c(C)c2c1=O (configuration not stated) ?
**A:** -21.8

====

target: Sphingosine 1-phosphate receptor 2 (Homo sapiens) (UniProt O95136); test: human S1P2 receptor antagonists, primary screen, cell-based (AID 736); settings: cell-based S1P2 antagonist assay, at 5 µM, stronger effect = higher value;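 also: CRE beta-lactamase reporter cells expressing human S1P2 stimulated with S1P; 0% = agonist at EC80 alone and 100% = agonist plus reference antagonist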
Sequence (O95136 whole entry, looked up): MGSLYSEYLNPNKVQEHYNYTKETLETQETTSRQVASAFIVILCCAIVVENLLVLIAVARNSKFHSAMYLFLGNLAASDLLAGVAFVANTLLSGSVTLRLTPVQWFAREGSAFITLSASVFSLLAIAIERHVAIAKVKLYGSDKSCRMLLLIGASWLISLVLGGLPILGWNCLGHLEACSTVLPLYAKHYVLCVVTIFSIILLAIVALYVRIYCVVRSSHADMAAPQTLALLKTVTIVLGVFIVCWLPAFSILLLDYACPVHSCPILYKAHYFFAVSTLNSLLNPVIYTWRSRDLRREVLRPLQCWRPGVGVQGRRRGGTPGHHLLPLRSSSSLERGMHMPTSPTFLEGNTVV
Hit rate of the full screen: of about 97,000 compounds, about 210 (0.22%) were called active. This excerpt belongs to a sample that is enriched for actives.
experimental_endpoint: inhibition (%)
# output: bare number, implied unit %

**Q:** May I ask what inhibition has been recorded for CCn1c(CNC(=O)c2ccccc2)nnc1SCC(=O)N1CCN(c2ccccc2)CC1 ?
**A:** 2.56

**Q:** May I ask what inhibition has been recorded for CCOc1cc(-c2cc(-c3ccc(OC)cc3)nc(N)c2C#N)ccc1O ?
**A:** -25.8

**Q:** May I ask what inhibition has been recorded for O=C1c2ccccc2NC(c2ccc(-c3cccc(Cl)c3)o2)N1O (stereo unspecified) ?
**A:** 9.34

**Q:** May I ask what inhibition has been recorded for CC1CCN(CC(=O)c2c[nH]c3ccccc23)CC1 ?
**A:** 12.6

**Q:** May I ask what inhibition has been recorded for CCOC(=O)c1c(NC(=O)c2ccc(N3CCOCC3)c([N+](=O)[O-])c2)sc(C)c1C ?
**A:** -6.51

**Q:** May I ask what inhibition has been recorded for CCCSC(=S)NC1CCS(=O)(=O)C1 (stereo unspecified) ?
**A:** 15.8

**Q:** May I ask what inhibition has been recorded for Cc1ccc(OCc2nnc(NC(=O)OCC(C)C)s2)cc1 ?
**A:** -11.9

**Q:** May I ask what inhibition has been recorded for CCNC(=S)Nc1cccc(Cl)c1C ?
**A:** 13.9

**Q:** May I ask what inhibition has been recorded for CCSc1nnc(NC(=O)c2ccc(C)cc2)s1 ?
**A:** 0.05

**Q:** May I ask what inhibition has been recorded for CC1CCN(C(=O)CN(c2ccc(Oc3ccccc3)cc2)S(C)(=O)=O)CC1 ?
**A:** -1.57

**Q:** May I ask what inhibition has been recorded for COc1ccc(C(F)(F)F)cc1N/C=C\c1nnnn1-c1ccc(C)cc1 ?
**A:** -17.3

====

Kindly supply the reported inhibition values for the records listed here.
molecular target: Sphingosine 1-phosphate receptor 2 (Homo sapiens) (UniProt O95136); test: human S1P2 receptor antagonists, primary screen, cell-based (AID 736); details: cell-based S1P2 antagonist assay, at 5 µM, stronger effect = higher value;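 also: CRE beta-lactamase reporter cells expressing human S1P2 stimulated with S1P; 0% = agonist at EC80 alone and 100% = agonist plus reference antagonist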
Out of some 97,000 compounds screened, about 210 (0.22%) were called active. The list comes from a sample in which actives are over-represented; it also holds close analogues and randomly drawn compounds.
# output: bare number, implied unit %

**Q:** May I ask what inhibition has been recorded for CC(C)(C)n1nnnc1C(c1ccc(F)cc1)N1CCN(Cc2ccc3c(c2)OCO3)CC1 (stereo unspecified) ?
**A:** 9.67

**Q:** May I ask what inhibition has been recorded for CCN(c1ccccc1)S(=O)(=O)c1ccc(C(=O)Nc2nccs2)cc1 ?
**A:** -3.2

**Q:** May I ask what inhibition has been recorded for Cc1ccc(-c2cnc(NC(=O)CCC(=O)N(C)Cc3ccccc3)n2C)cc1 ?
**A:** 15.9

**Q:** May I ask what inhibition has been recorded for O=c1cc(N2CCN(Cc3ccccc3)CC2)c(-c2ccccc2)n[nH]1 ?
**A:** 11.6

**Q:** May I ask what inhibition has been recorded for C=CCNC(=O)c1csc(-c2ccccc2)n1 ?
**A:** 5.01

**Q:** May I ask what inhibition has been recorded for Cc1ccc(S/C(=N\S(=O)(=O)c2ccc(Cl)cc2)c2ccccc2)cc1 ?
**A:** -10.2

**Q:** May I ask what inhibition has been recorded for CC(C)(C)c1ccc(C(=O)NNC(=O)Cc2ccccc2)cc1 ?
**A:** -7.08

**Q:** May I ask what inhibition has been recorded for CCC(C)NC(=O)c1ccccc1NC(=O)c1ccccc1N(C)S(C)(=O)=O (stereo unspecified) ?
**A:** -10.9

**Q:** May I ask what inhibition has been recorded for CCn1c2ccccc2c2cc(NC(=S)N3CCOCC3)ccc21 ?
**A:** 7.28

**Q:** May I ask what inhibition has been recorded for Cn1c(NN)nc2sc3c(c2c1=O)CCC3 ?
**A:** -7.52

**Q:** May I ask what inhibition has been recorded for COc1cccc(NC(=O)Cc2ccc(C)cc2)c1 ?
**A:** -17

**Q:** May I ask what inhibition has been recorded for CCN(CC)Cc1csc2ccc(Br)cc12 ?
**A:** -1.56

**Q:** May I ask what inhibition has been recorded for COC(=O)CSc1nc(C)c2ccc(OC)cc2n1 ?
**A:** 7.81

**Q:** May I ask what inhibition has been recorded for FC(F)(F)c1nnc2ccc(N3CCN(c4ccccc4)CC3)nn12 ?
**A:** 0.81

**Q:** May I ask what inhibition has been recorded for Cc1ccc(-n2nc3cc(C)c(NC(=O)c4cccnc4)cc3n2)cc1 ?
**A:** 3.29

**Q:** May I ask what inhibition has been recorded for COc1cc(/C=C(/NC(=O)c2ccccc2)C(=O)Nc2cccc(O)c2)c([N+](=O)[O-])cc1OC ?
**A:** -3.81

**Q:** May I ask what inhibition has been recorded for Clc1ccc(CSc2nnc(/C=C/c3ccccc3)o2)c(Cl)c1 ?
**A:** -0.17

**Q:** May I ask what inhibition has been recorded for Cc1cc(C)cc(OCC(=O)Nc2nc3ccc([N+](=O)[O-])cc3s2)c1 ?
**A:** 4.48

**Q:** May I ask what inhibition has been recorded for COc1ccc(C(=O)Oc2cc(/C=N/NS(=O)(=O)c3ccc(C)cc3)ccc2OC)cc1 ?
**A:** 1.84

**Q:** May I ask what inhibition has been recorded for CCN(CC)C(=O)CSc1nnc(CNc2ccc(F)cc2)n1Cc1ccco1 ?
**A:** -21.8

**Q:** May I ask what inhibition has been recorded for COc1ccc(Br)cc1CN1CCN(C(=O)c2cccc(OC)c2OC)CC1 ?
**A:** -12.2

**Q:** May I ask what inhibition has been recorded for COc1ccc(OC)c(NC(=O)c2cnn(-c3ccccc3Cl)c2NC(=O)c2ccco2)c1 ?
**A:** -6.97

**Q:** May I ask what inhibition has been recorded for CCOC(=O)c1ccccc1NS(=O)(=O)c1ccc(OC)cc1 ?
**A:** -9.6

**Q:** May I ask what inhibition has been recorded for COc1ccc(Cc2nnc(SC)[nH]c2=O)cc1 ?
**A:** -19.6

**Q:** May I ask what inhibition has been recorded for Cc1noc(COc2ccccc2OCc2onc(C)c2Cl)c1Cl ?
**A:** -6.44

**Q:** May I ask what inhibition has been recorded for O=C(NCN1CCN(CCO)CC1)c1cnccn1 ?
**A:** 4.69

**Q:** May I ask what inhibition has been recorded for O=C(Nc1nnc(CCOCCOCCc2nnc(NC(=O)c3ccco3)s2)s1)c1ccco1 ?
**A:** 0.16

**Q:** May I ask what inhibition has been recorded for CCN1CCCC1CNc1ncnc2c1[nH]c1ccc(F)cc12 (stereo unspecified) ?
**A:** -0.72

**Q:** May I ask what inhibition has been recorded for CCOc1ccc(C(O)Cc2nc3ccccc3n2C)cc1 (stereo unspecified) ?
**A:** -0.2

**Q:** May I ask what inhibition has been recorded for CCOc1c(Br)cc(/C=C2\C(=O)N(CCC#N)N=C2C)cc1OC ?
**A:** -33.3

**Q:** May I ask what inhibition has been recorded for CC(C)CC(=O)N1CCC(O)(CS(=O)(=O)Cc2ccccc2)CC1 ?
**A:** 5.12

**Q:** May I ask what inhibition has been recorded for CC(=O)NNc1cc(=O)c2c(=O)n(C)c(=O)n(C)c2[nH]1 ?
**A:** 22.2

**Q:** May I ask what inhibition has been recorded for C=CCO/N=C(\C)c1c(O)c(C)c(-c2ccccc2)n(-c2ccccc2)c1=O ?
**A:** 1.26

**Q:** May I ask what inhibition has been recorded for Cc1cc(C=O)c(C)n1-c1ccc(NC2CCCCC2)c([N+](=O)[O-])c1 ?
**A:** 4.51

**Q:** May I ask what inhibition has been recorded for CCCCCCC(=O)Nc1nc(C)c(-c2csc(Nc3cc(Cl)ccc3OC)n2)s1 ?
**A:** 8.39

**Q:** May I ask what inhibition has been recorded for Cc1nnsc1S(=O)(=O)Cc1ccccc1Cl ?
**A:** 6.79

**Q:** May I ask what inhibition has been recorded for COc1ccc(NC(=O)/C(Cl)=C(/Cl)S(=O)Cc2ccc(C)cc2)cn1 (stereo unspecified) ?
**A:** 98.7

**Q:** May I ask what inhibition has been recorded for CC(N=Cc1nc(-c2ccccc2)oc1O)c1ccccc1 (stereo unspecified) ?
**A:** -15.5

**Q:** May I ask what inhibition has been recorded for CCOC(=O)C1C(=O)NCC1c1ccccc1 (stereo unspecified) ?
**A:** -4.06

**Q:** May I ask what inhibition has been recorded for C=C(C)C(=O)Nc1cccc(C(C)=O)c1 ?
**A:** -17.2

**Q:** May I ask what inhibition has been recorded for Cc1cc(O)cc(O)c1C(=O)Cc1cnn(-c2ccccc2)c1 ?
**A:** -8.95

**Q:** May I ask what inhibition has been recorded for O=C(Nc1ccc2oc(-c3ccc4ccccc4c3)nc2c1)c1cccs1 ?
**A:** 7.93

**Q:** May I ask what inhibition has been recorded for CCCCOC(=O)Cn1c(=O)n(CC(=O)OCCCC)c2cc(C)ccc21 ?
**A:** -1.39

**Q:** May I ask what inhibition has been recorded for O=C(Nc1cccc2ncccc12)C(Cl)(Cl)Cl ?
**A:** 7.55

**Q:** May I ask what inhibition has been recorded for CCOC(=O)c1cc(C#N)c(N2CCCCC2)nc1-c1ccccc1 ?
**A:** 1.48

**Q:** May I ask what inhibition has been recorded for O=C(CCS(=O)(=O)c1cccc2nsnc12)N1CCN(c2ccccc2F)CC1 ?
**A:** 11.1
